Target: human TLR9 (Homo sapiens, UniProt Q9NR96)
Construct: host or cells: HEK-Blue cells (HEK293-derived reporter line)
Sequence (Q9NR96 26-1032): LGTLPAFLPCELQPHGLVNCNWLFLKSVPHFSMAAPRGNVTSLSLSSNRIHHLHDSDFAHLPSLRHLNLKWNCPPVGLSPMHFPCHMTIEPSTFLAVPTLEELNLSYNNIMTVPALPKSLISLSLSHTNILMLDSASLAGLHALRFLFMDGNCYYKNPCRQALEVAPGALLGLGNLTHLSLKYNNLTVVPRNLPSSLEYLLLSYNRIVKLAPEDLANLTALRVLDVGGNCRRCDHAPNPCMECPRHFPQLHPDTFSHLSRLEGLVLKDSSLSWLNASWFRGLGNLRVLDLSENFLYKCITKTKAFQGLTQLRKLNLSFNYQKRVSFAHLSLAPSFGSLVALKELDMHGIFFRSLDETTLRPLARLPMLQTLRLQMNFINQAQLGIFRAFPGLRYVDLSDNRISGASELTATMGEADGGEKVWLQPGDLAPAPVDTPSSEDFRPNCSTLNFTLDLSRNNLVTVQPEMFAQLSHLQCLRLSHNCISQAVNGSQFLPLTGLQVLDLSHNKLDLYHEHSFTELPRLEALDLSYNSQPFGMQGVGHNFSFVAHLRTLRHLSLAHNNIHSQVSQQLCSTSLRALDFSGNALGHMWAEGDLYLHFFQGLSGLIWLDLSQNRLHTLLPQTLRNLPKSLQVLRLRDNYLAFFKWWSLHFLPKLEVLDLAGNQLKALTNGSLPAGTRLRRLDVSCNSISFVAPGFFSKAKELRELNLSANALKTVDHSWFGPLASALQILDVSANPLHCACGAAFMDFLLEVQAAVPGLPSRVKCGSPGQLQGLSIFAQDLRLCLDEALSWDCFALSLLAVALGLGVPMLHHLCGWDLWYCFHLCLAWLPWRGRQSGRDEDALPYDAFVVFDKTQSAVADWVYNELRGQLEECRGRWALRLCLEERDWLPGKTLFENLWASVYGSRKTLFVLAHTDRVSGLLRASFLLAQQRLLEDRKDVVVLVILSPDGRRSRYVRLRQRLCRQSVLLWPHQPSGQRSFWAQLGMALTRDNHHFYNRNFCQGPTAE
Test: TLR9 inhibition reporter assay (HEK-Blue cells, secreted embryonic alkaline phosphatase reporter)
Assay type: cell-based
pIC50: −log10 of the molar value.
Item-by-item account of pIC50

Compound: Cn1c(-c2ccc(S(C)(=O)=O)cc2)nc2c(F)c(C3CCN(C4CC5CCC(C4)N5C4COC4)CC3)ccc21 (stereo not drawn) [Example 196]
pIC50: 6.24
--
Compound: CC(C)CN1CCC(N2CCC(c3cc4c(cc3F)nc(-c3ccc(S(C)(=O)=O)cc3)n4C)CC2)CC1
pIC50: 6.46
--
Compound: Cn1c(-c2ccc(S(C)(=O)=O)cc2)nc2cc(F)c(C3CCN(C4CC5CCC(C4)N5C4CCOCC4)CC3)cc21 (stereo not drawn) [Example 237]
pIC50: 7.06
--
Compound: CC(C)CN1CCC(N2CCC(c3ccc4nc(-c5ccc(S(C)(=O)=O)cc5)n(C)c4c3F)CC2)CC1
pIC50: 6.30
--
Compound: Cn1c(-c2ccc(S(C)(=O)=O)cc2)nc2ccc(C3CCN(C4CC5CCC(C4)N5C4COC4)CC3)c(F)c21 (stereo not drawn)
pIC50: 6.52
--
Compound: CS(=O)(=O)c1ccc(-c2nc3ccc(C4CCN(C5CCN(C6COC6)CC5)CC4)c(F)c3[nH]2)cc1
pIC50: 6.19

----------
Item-by-item account of IC50
Target: human TLR9 (Homo sapiens)
Construct: host or cells: HEK-Blue cells (HEK293-derived reporter line)
Assay: TLR9 inhibition reporter assay (HEK-Blue cells, secreted embryonic alkaline phosphatase reporter)
Format: cell-based
Settings: HEK-Blue cells overexpressing human TLR9, stimulated with ODN2006 5 nM; read-out: TLR 9 IC50
Parameter Measured: IC50 (nM)

Compound String: CCn1c(-c2ccc(OC)c(OC)c2)nc2ccc(C3CCN(C4CCN(CC(C)C)CC4)CC3)cc21
Measured: 149
//
Compound String: Cc1cc(-c2ccc(C3CCN(C)CC3)cc2)cc2c1nc(-c1ccc(S(C)(=O)=O)cc1)n2C
Measured: 100
//
Compound String: COCCN1CCC(N2CCC(c3cc(F)c4nc(-c5ccc(S(C)(=O)=O)cc5)n(C)c4c3)CC2)CC1
Measured: 124
//
Compound String: Cc1cc(C2CCN(C3CCN(CC(C)C)CC3)CC2)cc2c1nc(-c1ccc(S(C)(=O)=O)cc1)n2C
Measured: 129
//
Compound String: CC(C)CN1CCC(N2CCC(c3ccc4nc(-c5ccc(S(C)(=O)=O)cc5)[nH]c4c3F)CC2)CC1
Measured: 120

----------
Target: human TLR9 (Homo sapiens, UniProt Q9NR96)
Construct: host or cells: HEK-Blue cells (HEK293-derived reporter line)
Test: TLR9 inhibition reporter assay (HEK-Blue cells, secreted embryonic alkaline phosphatase reporter)
Type: cell-based
Details: HEK-Blue cells overexpressing human TLR9, stimulated with ODN2006 5 nM; read-out: TLR 9 IC50
Parameter Measured: IC50

Molecule: Cc1cc(C2CCN(C3CCN(CC(C)C)CC3)CC2)cc2[nH]c(-c3ccnc4ccccc34)nc12
Measured: 0.1 µM

Molecule: Cc1cc(C2CCN(C3CC4(C3)CN(CC3CC3)C4)CC2)cc2c1nc(-c1ccc(S(C)(=O)=O)cc1)n2C
Measured: 0.068 µM

Molecule: CC(C)CN1CCCC(N2CCC(c3ccc4nc(-c5ccc(S(C)(=O)=O)cc5)n(C)c4c3F)CC2)CC1 (stereo not drawn) [Example 311]
Measured: 0.072 µM

----------
Item-by-item account of IC50
Target: human TLR9 (Homo sapiens, UniProt Q9NR96)
Construct: host or cells: HEK-Blue cells (HEK293-derived reporter line)
Assay: TLR9 inhibition reporter assay (HEK-Blue cells, secreted embryonic alkaline phosphatase reporter)
Type: cell-based
Details: HEK-Blue human TLR9 reporter cells

Molecule: Cc1cc(C2CCN(C3CCCN(C4CCOCC4)CC3)CC2)cc2c1nc(-c1ccc(S(C)(=O)=O)cc1)n2C (single isomer, unassigned) [Example 307]
IC50 / nM: 3.5

Molecule: Cn1c(-c2ccc(S(C)(=O)=O)cc2)nc2c(F)cc(C3CCN(C4CC5CCC(C4)N5C4CCOCC4)CC3)cc21 (single isomer, unassigned) [Example 288]
IC50 / nM: 110

Molecule: CS(=O)(=O)c1ccc(-c2nc3c(F)cc(C4CCN(C5CC6CCC(C5)N6CC5CC5)CC4)cc3n2C2CC2)cc1 (single isomer, unassigned) [Example 324]
IC50 / nM: 42

----------
Item-by-item account of IC50
Molecular target: human TLR8 (Homo sapiens, UniProt Q9NR97)
Sequence (Q9NR97 27-1041): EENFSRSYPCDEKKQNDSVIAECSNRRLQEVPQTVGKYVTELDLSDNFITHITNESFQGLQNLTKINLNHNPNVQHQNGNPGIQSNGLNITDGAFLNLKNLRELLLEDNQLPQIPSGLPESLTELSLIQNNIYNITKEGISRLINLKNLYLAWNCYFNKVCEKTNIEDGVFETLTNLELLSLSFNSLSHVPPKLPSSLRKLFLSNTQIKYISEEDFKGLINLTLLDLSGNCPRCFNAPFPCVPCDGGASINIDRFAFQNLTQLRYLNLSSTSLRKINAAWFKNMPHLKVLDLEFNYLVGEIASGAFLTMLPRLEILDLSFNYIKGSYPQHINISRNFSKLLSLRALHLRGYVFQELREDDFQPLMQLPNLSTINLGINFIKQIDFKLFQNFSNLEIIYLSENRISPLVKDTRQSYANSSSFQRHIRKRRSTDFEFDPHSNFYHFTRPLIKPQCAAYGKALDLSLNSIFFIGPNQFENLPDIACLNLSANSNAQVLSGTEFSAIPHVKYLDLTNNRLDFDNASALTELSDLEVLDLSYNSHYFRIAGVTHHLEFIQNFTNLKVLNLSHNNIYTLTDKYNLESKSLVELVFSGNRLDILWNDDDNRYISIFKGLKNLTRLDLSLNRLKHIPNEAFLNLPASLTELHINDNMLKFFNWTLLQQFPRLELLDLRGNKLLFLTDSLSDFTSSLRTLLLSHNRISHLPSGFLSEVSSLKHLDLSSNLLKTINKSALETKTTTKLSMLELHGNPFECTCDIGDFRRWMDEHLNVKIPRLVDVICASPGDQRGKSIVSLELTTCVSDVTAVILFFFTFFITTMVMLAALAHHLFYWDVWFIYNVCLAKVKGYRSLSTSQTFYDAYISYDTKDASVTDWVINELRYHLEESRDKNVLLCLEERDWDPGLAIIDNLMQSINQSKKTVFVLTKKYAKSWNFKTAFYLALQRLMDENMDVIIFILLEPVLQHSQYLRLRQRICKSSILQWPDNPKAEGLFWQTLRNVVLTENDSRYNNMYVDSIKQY
Experiment: TLR8 inhibition reporter assay (HEK-Blue cells, secreted embryonic alkaline phosphatase reporter)
Settings: HEK-Blue cells overexpressing human TLR8, stimulated with R848 15.9 μM; read-out: TLR 8 IC50
Parameter Measured: IC50 (µM)

Compound: CN(C)C1CCN(Cc2ccc(-c3ccc4nc(-c5cccc(F)c5)n(C)c4c3)cc2)CC1 [Example 377]
Parameter Measured: IC50
Unit Label: µM
Comparison Sign: =
Measured: 19.6

Compound: Cc1cc(C2CCN(C3CC4CCC(C3)N4CC3CC3)CC2)cc2c1nc(-c1ccc(S(C)(=O)=O)c(F)c1)n2C (centres unmarked) [Example 341]
Parameter Measured: IC50
Unit Label: µM
Comparison Sign: =
Measured: 16.7

Compound: COc1cc(-c2nc3c(C)cc(C4CCN(C5CC6CCC(C5)N6C5CCC5)CC4)cc3n2C)cn2ncnc12 (single isomer, unassigned) [Example 355]
Parameter Measured: IC50
Unit Label: µM
Comparison Sign: =
Measured: 3.1

Compound: CN(C)C1CCN(Cc2ccc(-c3ccc4nc(-c5ccccc5S(C)(=O)=O)n(C)c4c3)cc2)CC1 [Example 379]
Parameter Measured: IC50
Unit Label: µM
Comparison Sign: =
Measured: 18.8

Compound: COCCN1C2CCC1CC(N1CCC(c3cc4nc(-c5ccc(S(C)(=O)=O)cc5)n(C)c4cc3F)CC1)C2 (centres unmarked) [Example 258]
Parameter Measured: IC50
Unit Label: µM
Comparison Sign: >
Measured: 50

Compound: COc1ccc(-c2nc3ccc(C4CCN(C5CCN(C6CC6)CC5)CC4)cc3n2CC(F)F)cc1OC [Example 33]
Parameter Measured: IC50
Unit Label: µM
Comparison Sign: =
Measured: 35

Compound: Cc1cc(C2CCN(C3CC4CCC(C3)N4CC(C)C)CC2)cc2c1nc(-c1ccc(S(C)(=O)=O)cc1)n2C (centres unmarked) [Example 118]
Parameter Measured: IC50
Unit Label: µM
Comparison Sign: >
Measured: 25

Compound: COc1ccc(-c2nc3c(C)cc(C4CCN(C5CCN(CC(C)C)CC5)CC4)cc3[nH]2)cc1OC [Example 43, tris(2,2,2-trifluoroacetate)]
Parameter Measured: IC50
Unit Label: µM
Comparison Sign: =
Measured: 31

Compound: Cn1c(-c2ccc(S(C)(=O)=O)cc2)nc2c(F)cc(C3CCN(C4CC5CCC(C4)N5C4COC4)CC3)cc21 (centres unmarked) [Example 286]
Parameter Measured: IC50
Unit Label: µM
Comparison Sign: >
Measured: 50

Compound: COc1ccc(-c2nc3cc(C4CCN(C5CCN(C(C)C)CC5)CC4)ccc3n2CC(F)F)cc1OC [Example 7]
Parameter Measured: IC50
Unit Label: µM
Comparison Sign: >
Measured: 50

Compound: CC(C)CN1C2CCC1CC(N1CCC(c3ccc4nc(-c5ccc(S(C)(=O)=O)cc5)n(C)c4c3F)CC1)C2 (single isomer, unassigned) [Example 266]
Parameter Measured: IC50
Unit Label: µM
Comparison Sign: >
Measured: 50

Compound: Cn1c(-c2ccc(S(C)(=O)=O)cc2)nc2cc(C3CCN(C4CCN(C5COC5)CC4)CC3)cc(F)c21 [Example 206]
Parameter Measured: IC50
Unit Label: µM
Comparison Sign: >
Measured: 50

Compound: COc1ccc(-c2nc3c(C)cc(C4CCN(C5CCN(C(=O)C(C)C)CC5)CC4)cc3[nH]2)cc1OC [Example 14]
Parameter Measured: IC50
Unit Label: µM
Comparison Sign: >
Measured: 50

Compound: Cn1c(-c2ccc(S(C)(=O)=O)cc2)nc2c(F)c(C3CCN(C4CC5CCC(C4)N5CC4CC4)CC3)ccc21 (single isomer, unassigned) [Example 191]
Parameter Measured: IC50
Unit Label: µM
Comparison Sign: >
Measured: 50

----------
Item-by-item account of IC50
Molecular target: human TLR7 (Homo sapiens)
Sequence (Q9NYK1 27-1049): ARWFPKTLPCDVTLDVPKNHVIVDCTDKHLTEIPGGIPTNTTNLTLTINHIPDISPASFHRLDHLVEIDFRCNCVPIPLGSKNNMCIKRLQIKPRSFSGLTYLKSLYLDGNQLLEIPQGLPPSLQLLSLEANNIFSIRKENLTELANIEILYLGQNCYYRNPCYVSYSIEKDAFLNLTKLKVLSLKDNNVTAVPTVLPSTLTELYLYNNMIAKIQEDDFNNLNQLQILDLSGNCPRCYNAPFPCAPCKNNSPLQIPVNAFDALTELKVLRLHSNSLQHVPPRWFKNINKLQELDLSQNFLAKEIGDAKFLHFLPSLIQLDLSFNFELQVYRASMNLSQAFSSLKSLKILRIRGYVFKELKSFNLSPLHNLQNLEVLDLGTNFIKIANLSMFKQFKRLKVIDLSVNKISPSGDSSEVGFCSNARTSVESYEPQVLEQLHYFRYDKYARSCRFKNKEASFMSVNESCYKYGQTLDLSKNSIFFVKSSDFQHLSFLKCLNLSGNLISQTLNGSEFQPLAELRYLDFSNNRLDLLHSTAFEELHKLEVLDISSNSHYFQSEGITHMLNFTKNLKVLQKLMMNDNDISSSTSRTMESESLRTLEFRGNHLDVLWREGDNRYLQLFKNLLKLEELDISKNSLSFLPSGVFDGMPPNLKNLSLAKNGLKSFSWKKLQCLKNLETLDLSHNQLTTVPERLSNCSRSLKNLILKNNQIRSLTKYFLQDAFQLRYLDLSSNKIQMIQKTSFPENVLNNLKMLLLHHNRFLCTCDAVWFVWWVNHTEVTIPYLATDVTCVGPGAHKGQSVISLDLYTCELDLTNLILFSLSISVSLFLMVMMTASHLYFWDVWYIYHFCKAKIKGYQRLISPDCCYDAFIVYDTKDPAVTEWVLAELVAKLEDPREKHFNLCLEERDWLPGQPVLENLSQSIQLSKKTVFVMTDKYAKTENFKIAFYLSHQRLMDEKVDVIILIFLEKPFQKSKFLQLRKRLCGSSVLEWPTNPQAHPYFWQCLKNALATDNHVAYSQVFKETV
Assay: TLR7 inhibition reporter assay (HEK-Blue cells, secreted embryonic alkaline phosphatase reporter)
Conditions: HEK-Blue cells overexpressing human TLR7, stimulated with gardiquimod 7.5 μM; read-out: TLR 7 IC50
Parameter Measured: IC50

Compound: Cn1c(-c2ccc(S(C)(=O)=O)cc2)nc2cc(F)c(C3CCN(C4CC5CCC(C4)N5C4COC4)CC3)cc21 (single isomer, unassigned) [Example 235]
Measured: > 50 µM

Compound: Cc1cc(-c2ccc(C3CCN(C4CCOCC4)CC3)cc2)cc2c1nc(-c1ccc(S(C)(=O)=O)cc1)n2C
Measured: > 50 µM

Compound: Cn1c(-c2ccc(S(C)(=O)=O)cc2)nc2cc(F)c(C3CCN(C4CCN(C5CCC5)CC4)CC3)cc21
Measured: > 50 µM

Compound: COCCN1C2CCC1CC(N1CCC(c3cc4c(cc3F)nc(-c3ccc(S(C)(=O)=O)cc3)n4C)CC1)C2 (single isomer, unassigned) [Example 239]
Measured: ≥ 51.2 µM
